Test system: L1210 leukemia ip in BDF1 mice, survival T/C
Experiment: NCI In Vivo Anticancer Drug Screen. Data for tumor model L1210 Leukemia (intraperitoneal) in B6D2F1 (BDF1) mice
Conditions: endpoint: mean survival time; dose: 1.0 mg/kg/injection; schedule: Q01DX009 (ip); vehicle: saline
Inconclusive results and toxic doses are left out. Cut-off read from the data, not from the text of the source: active = T/C of 150% or more; inactive = T/C below 125%.
Hello, when you answer, please use one of the following outcomes: active, inactive

c1ncc(OCCN2CC2)nc1OCCN1CC1: inactive
C=CC(=O)O: inactive
CC[CH2][Sn]([Cl])([Cl])[CH2]CC: inactive

Turning now to a further record.
Hi, sorry to bother you, what did the test record for Nc1nc(N)c2c(Cl)c(CNc3ccc(C(=O)NC(CCCC(=O)O)C(=O)O)cc3)ccc2n1 (centres undefined) ?
active

====

Could you please report measured T/C for the items listed next?
Tested on: L1210 leukemia ip in BDF1 mice, survival T/C
Assay: NCI In Vivo Anticancer Drug Screen. Data for tumor model L1210 Leukemia (intraperitoneal) in B6D2F1 (BDF1) mice
Details: endpoint: mean survival time; dose: 100.0 mg/kg/injection; schedule: Q01DX005 (ip); vehicle: saline; higher = longer survival
Toxic doses and inconclusive results are not listed.

Provide T/C values for the following items, in order.
1. O=c1[nH]c(=O)c2n[nH]c(C3OCC(O)C3O)c2[nH]1 (centres undefined)
2. COC(=O)c1n[nH]c(C2OCC3OC(C)(C)OC32)c1I (centres undefined)
3. CC(=O)Nc1ccc(S(=O)(=O)N2CC2)cc1
4. COCC1OC(n2cnc3c(N(C)C)ncnc32)C(OC)C1OC (centres undefined)

1. 94 % of control
2. 98 % of control
3. 96 % of control
4. 102 % of control

====

System: L1210 leukemia ip in BDF1 mice, survival T/C
Assay: NCI In Vivo Anticancer Drug Screen. Data for tumor model L1210 Leukemia (intraperitoneal) in B6D2F1 (BDF1) mice
Settings: endpoint: mean survival time; dose: 100.0 mg/kg/injection; schedule: Q04DX002 (ip); vehicle: saline; higher = longer survival
Inconclusive results and toxic doses are left out.
property-name: T/C

CN(CC(C)(C)C=O)CC(C)(C)C=O: 112 % of control
COc1ccc(C(=O)OCc2ccccc2CN2CCCCC2C)cc1 (stereo not drawn): 94 % of control
CCCCCCC(=O)N(CC)CC: 94 % of control
COc1ccc(OC(C)OCCOCCOC(C)=O)cc1 (stereo not drawn): 104 % of control

Provide T/C values for the following items, in order.
1. Cn1[nH]c(=O)c2ncccc2c1=O
2. O=C1C=CC(=O)C2C3c4ccccc4C(c4ccccc43)C12 (stereo not drawn)

1. 94 % of control
2. 93 % of control

====

Could you please report measured T/C for the items listed next?
Test system: L1210 leukemia ip in BDF1 mice, survival T/C
Assay: NCI In Vivo Anticancer Drug Screen. Data for tumor model L1210 Leukemia (intraperitoneal) in B6D2F1 (BDF1) mice
Settings: endpoint: mean survival time; dose: 25.0 mg/kg/injection; schedule: Q04DX003 (ip); vehicle: saline with Tween-80; higher = longer survival
Toxic doses and inconclusive results are not listed.

Study these solved cases before continuing.
N#CCc1ccc(N=Cc2ccc([N+](=O)[O-])s2)cc1: 102 % of control
[Cu+2].[NH-]c1ccccc1C(=O)O.[NH-]c1ccccc1C(=O)O: 97 % of control

Provide T/C values for the following items, in order.
1. Nc1ncnc(N)c1NC(=O)c1ccc(OCCOc2ccccc2)c(Cl)c1
2. CCCCNC(C)(C)C(SSSC(C)=O)c1ccco1 (configuration not stated)
3. O=C(O)c1c(F)cccc1F
4. C/C(=N/NC(=O)c1ccncc1)C(=O)O
5. O=P(c1ccco1)(c1ccco1)c1ccco1

89 % of control
106 % of control
91 % of control
92 % of control
101 % of control

====

Tested on: L1210 leukemia ip in BDF1 mice, survival T/C
Experiment: NCI In Vivo Anticancer Drug Screen. Data for tumor model L1210 Leukemia (intraperitoneal) in B6D2F1 (BDF1) mice
Settings: endpoint: mean survival time; dose: 200.0 mg/kg/injection; schedule: Q01DX009 (ip); vehicle: gum acacia; higher = longer survival
Inconclusive results and toxic doses are left out.
Could you please report measured T/C for the items listed next?

CC(=O)Nc1ccc(S(=O)(=O)SC(Cl)(Cl)Cl)cc1: 94 % of control
Cc1cc(OC(=O)Nc2cccc(C(F)(F)F)c2)c(C(C)C)cc1Cl: 91 % of control
CC1CCCC(C)N1C(=O)Nc1cccc(C(F)(F)F)c1 (centres undefined): 103 % of control

Need T/C, item O=C(NCCc1ccccc1)Nc1ccccc1Cl
115 % of control

====

Test system: L1210 leukemia ip in BDF1 mice, survival T/C
Experiment: NCI In Vivo Anticancer Drug Screen. Data for tumor model L1210 Leukemia (intraperitoneal) in B6D2F1 (BDF1) mice
Conditions: endpoint: mean survival time; dose: 100.0 mg/kg/injection; schedule: Q01DX009 (ip); vehicle: other; higher = longer survival
Toxic doses and inconclusive results are not listed.
property-name: T/C

Study these solved cases before continuing.
C1CCC2(CC1)SC1(CCCCC1)SC1(CCCCC1)S2: 94 % of control
NC(=O)C1CC=CCC1C(=O)O (stereo unspecified): 88 % of control
O=C1OC(c2ccc([N+](=O)[O-])cc2)=N/C1=C\c1cccc([N+](=O)[O-])c1: 96 % of control
CC(C)(C)c1ccc(OCCO)cc1: 95 % of control
Oc1ccc(O)c(CCCCCc2cc(O)ccc2O)c1: 97 % of control

Okay, next one:
Need T/C, item Cc1ccc(S(=O)(=O)Oc2c(Cl)c(Cl)c(Cl)c(Cl)c2Cl)cc1
92 % of control

====

Could you please report measured T/C for the items listed next?
Tested on: L1210 leukemia ip in BDF1 mice, survival T/C
Assay: NCI In Vivo Anticancer Drug Screen. Data for tumor model L1210 Leukemia (intraperitoneal) in B6D2F1 (BDF1) mice
Conditions: endpoint: mean survival time; dose: 200.0 mg/kg/injection; schedule: Q01DX009 (ip); vehicle: Klucel (hydroxypropylcellulose) (HPC); higher = longer survival
Toxic doses and inconclusive results are not listed.

Provide T/C values for the following items, in order.
1. O=C(NC(=S)Nc1ccc(F)cc1)c1cccc2ccccc12
2. CCC(=O)Nc1ccccc1
3. COc1ccc(C(=O)/C=C/c2ccc3c(c2)OCO3)cc1OC
4. O=C(Nc1cccc(C(F)(F)F)c1)C(c1ccccc1)c1ccccc1
5. CC(C)CC(N=C(NC(CC(C)C)C(=O)O)c1ccccc1)C(=O)O (configuration not stated)

91 % of control
95 % of control
90 % of control
100 % of control
105 % of control

Provide T/C values for the following items, in order.
1. CCOC(=O)c1cnc(SC)nc1Nc1ccc(Cl)cc1Cl
2. O=[N+]([O-])c1ccccc1S(=O)(=O)Nc1ccccc1F
3. Cc1ccc(C2(C(=O)O)CCCCC2)cc1
4. CN1CC2=C(C1)C(N(C(=O)c1ccc(-c3ccccc3)cc1)C(=O)c1ccc(-c3ccccc3)cc1)=NCN2
5. CC1CC2C(CC1=O)C(C)(C)CCC2(C)C (configuration not stated)

97 % of control
100 % of control
88 % of control
94 % of control
94 % of control

====

Could you please report measured T/C for the items listed next?
Tested on: L1210 leukemia ip in BDF1 mice, survival T/C
Assay: NCI In Vivo Anticancer Drug Screen. Data for tumor model L1210 Leukemia (intraperitoneal) in B6D2F1 (BDF1) mice
Conditions: endpoint: mean survival time; dose: 100.0 mg/kg/injection; schedule: Q04DX002 (ip); vehicle: Klucel (hydroxypropylcellulose) (HPC); higher = longer survival
Toxic doses and inconclusive results are not listed.

Study these solved cases before continuing.
CC(=O)c1ccc(O)cc1: 114 % of control
O=C1CCCCCCCCCCCCCCCO1: 90 % of control
COc1cc(C)ccc1OC(=O)Nc1ccccc1: 109 % of control
O=C1CC2CCCC(C1)S2: 86 % of control
COc1cc(C(=O)NC(=S)NCc2ccncc2)cc(OC)c1OC: 96 % of control

Provide T/C values for the following items, in order.
1. CC1C(N2CCCCC2)N(C(=O)c2ccccc2)SC12c1ccccc1-c1ccccc12 (configuration not stated)
2. COc1ccc(/C(C)=N\NC(N)=O)cc1

94 % of control
105 % of control

====

Could you please report measured T/C for the items listed next?
Test system: L1210 leukemia ip in BDF1 mice, survival T/C
Assay: NCI In Vivo Anticancer Drug Screen. Data for tumor model L1210 Leukemia (intraperitoneal) in B6D2F1 (BDF1) mice
Settings: endpoint: mean survival time; dose: 150.0 mg/kg/injection; schedule: Q01DX001 (ip); vehicle: other; higher = longer survival
Inconclusive results and toxic doses are left out.

Study these solved cases before continuing.
CCCCc1nc2c(O)ccc(O)c2nc1C: 88 % of control
C=C1CCCC(O)CCC1: 98 % of control
NC(CSC(c1ccccc1)(c1ccccc1)c1ccc(Br)cc1)C(=O)O (centres undefined): 121 % of control

Need T/C, item C/C(=N\NS(C)(=O)=O)C(C)(C)C
103 % of control

Data origin, for the record: PubChem BioAssay AID248
